# ASSAY_NOTES: self-splicing fitness, log relative to wild type (ln ratio); higher = more splicing; Tetrahymena group I intron in knt gene, E. coli kanamycin selection, DiMSum; sequences stand for … in CUCUCU…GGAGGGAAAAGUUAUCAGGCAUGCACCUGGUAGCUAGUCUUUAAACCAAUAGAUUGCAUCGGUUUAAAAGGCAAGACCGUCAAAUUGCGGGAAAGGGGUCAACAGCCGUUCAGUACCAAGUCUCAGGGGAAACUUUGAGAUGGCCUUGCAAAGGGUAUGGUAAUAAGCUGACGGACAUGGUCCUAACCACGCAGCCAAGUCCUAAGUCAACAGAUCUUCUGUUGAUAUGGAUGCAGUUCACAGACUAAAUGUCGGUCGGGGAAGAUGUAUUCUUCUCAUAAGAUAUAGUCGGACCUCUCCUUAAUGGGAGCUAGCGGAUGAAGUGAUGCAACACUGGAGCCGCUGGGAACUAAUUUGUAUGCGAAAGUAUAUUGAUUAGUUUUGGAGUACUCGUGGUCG;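 also: selection with 25 µg/mL kanamycin versus none on LB agar overnight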
# CONDITION_SET: 30 °C
ASSAY_METRIC: self-splicing fitness (ln)
The answer should be a number; do not append a unit.

[[record]]
residue_string = "UGUAAGCAAUAUUACGUAUA"
measurement = -1.21

[[record]]
residue_string = "ACAUAGCAAUAUUACGUUAC"
measurement = -1.52

[[record]]
residue_string = "CGCAAGCAAUAUUACGGAUU"
measurement = -4.84

[[record]]
residue_string = "UUUUAGCAAUAUUACGCGUG"
measurement = -0.683

[[record]]
residue_string = "AGGCAGCAAUAUUACGGAUG"
measurement = -2.3

[[record]]
residue_string = "UGUCAGCAAUAUUACGCGAA"
measurement = -0.455

[[record]]
residue_string = "CACAAGCAAUAUUACGAGAC"
measurement = -3.08

[[record]]
residue_string = "GCGAAGCAAUAUUACGACGC"
measurement = -1.98


## Input Entry under review: `CAACAGCAAUAUUACGAUUA` . Reported self-splicing fitness (ln)?
## Output -0.522

## Input Entry under review: `AGCCAGCAAUAUUACGUUUA` . Reported self-splicing fitness (ln)?
## Output -2.7

## Input Entry under review: `GGACAGCAAUAUUACGAGCA` . Reported self-splicing fitness (ln)?
## Output -0.424

## Input Entry under review: `UCGAAGCAAUAUUACGUCGU` . Reported self-splicing fitness (ln)?
## Output -2.65

## Input Entry under review: `UGACAGCAAUAUUACGAACG` . Reported self-splicing fitness (ln)?
## Output 0.00619

## Input Entry under review: `CCUGAGCAAUAUUACGGAGG` . Reported self-splicing fitness (ln)?
## Output -3.56

## Input Entry under review: `ACAGAGCAAUAUUACGUCCG` . Reported self-splicing fitness (ln)?
## Output -3.65

## Input Entry under review: `GAUAAGCAAUAUUACGCCUA` . Reported self-splicing fitness (ln)?
## Output -0.016

## Input Entry under review: `AAGGAGCAAUAUUACGGCGU` . Reported self-splicing fitness (ln)?
## Output -1.33

## Input Entry under review: `UCCUAGCAAUAUUACGGUUG` . Reported self-splicing fitness (ln)?
## Output -4.08

## Input Entry under review: `CGCGAGCAAUAUUACGUAUA` . Reported self-splicing fitness (ln)?
## Output -3.38

## Input Entry under review: `CUCAAGCAAUAUUACGCAUC` . Reported self-splicing fitness (ln)?
## Output -3.63
